Recorded values, source patent US20070065439A1.

- test.system: Recombinant human IL-1beta (rhIL-1b) (human, UniProt P01584 117-269)
- assay.text: cell-based or functional assay
assay.metric: % IL-6 production, supernatant 1:10 dilut. (%)
Numbers only; they are read as %.

QUERY: What value of measured % IL-6 production, supernatant 1:10 dilut. is listed for 9.2.1 (antibody, human IgG4, V domains shown, lambda) VH: QVQLVESGGGVVQPGRSLRLSCAASGFTFNNYGMHWVRQAPGKGLECVAVIWYDGGNKYYADSVKGRFAISRDNSKNTLYLQMNSLRAEDTAVYYCTAVTTLYYYYGMDVWGQGTTVTVS VL: QSALTQPASVSGSPGQSITISCTGTSSDVGGYNYVSWYQQHPGKAPKLMIYEVSNRPSGVSNRFSGSKSGNTASLTISGLQAEDEADYYCSSYTSSSILVFGGGTKLTVL ?
RESULT: 8
